Provide the reported pIC50 of each item.
molecular target: Recombinant human calpain I (Homo sapiens); construct: made in house; test: Inhibition of calpain I (Succ-Leu-Tyr-MNA hydrolysis); format: biochemical; details: Tables 2-4; pH 7.5
Sequence (P07384 whole entry): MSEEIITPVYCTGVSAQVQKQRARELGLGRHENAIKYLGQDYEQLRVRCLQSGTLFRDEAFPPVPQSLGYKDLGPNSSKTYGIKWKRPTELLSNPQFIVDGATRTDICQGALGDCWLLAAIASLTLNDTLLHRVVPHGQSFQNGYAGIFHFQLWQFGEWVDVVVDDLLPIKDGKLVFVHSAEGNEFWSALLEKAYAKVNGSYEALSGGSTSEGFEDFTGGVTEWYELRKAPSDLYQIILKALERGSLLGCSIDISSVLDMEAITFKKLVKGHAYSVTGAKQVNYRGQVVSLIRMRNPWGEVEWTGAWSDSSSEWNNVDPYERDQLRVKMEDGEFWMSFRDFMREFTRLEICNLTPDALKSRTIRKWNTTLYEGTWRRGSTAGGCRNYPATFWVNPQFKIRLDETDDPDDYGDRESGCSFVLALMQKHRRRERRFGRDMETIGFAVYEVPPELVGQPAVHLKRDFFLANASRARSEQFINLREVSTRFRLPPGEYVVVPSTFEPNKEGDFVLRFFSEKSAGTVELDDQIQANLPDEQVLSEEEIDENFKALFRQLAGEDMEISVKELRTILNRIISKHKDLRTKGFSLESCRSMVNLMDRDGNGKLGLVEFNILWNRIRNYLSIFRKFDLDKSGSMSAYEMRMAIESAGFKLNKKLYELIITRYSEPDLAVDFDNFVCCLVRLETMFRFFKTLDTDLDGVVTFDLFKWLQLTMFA
Quick note: pIC50 means taking -log10 of the concentration in moles per liter.

Give the value of pIC50 reported for the following: O=C(NCCCNS(=O)(=O)c1ccccc1)C(=O)C(Cc1ccccc1)NC(=O)c1cc(C#Cc2ccccc2)nc2ccccc12 (stereo not shown)
7.26

Using known records, supply pIC50 for O=C(NCCNS(=O)(=O)c1ccccc1)C(=O)[C@H](Cc1ccccc1)NC(=O)c1cc(C#Cc2ccccc2)nc2ccccc12
7.54

Given O=C(NCCNS(=O)(=O)c1ccccc1)C(=O)C(Cc1ccccc1)NC(=O)c1cc(C#Cc2ccccc2)nc2ccccc12 (stereo not shown) , respond with its pIC50.
7.37

Output pIC50 of C=CCNC(=O)C(=O)C(Cc1ccccc1)NC(=O)c1cc(C#Cc2ccccc2)nc2ccccc12 (stereo not shown)
6.68
